IC50 overview
# tested_on: GnRH receptors (rat pituitary anterior lobe membrane fraction) (Rattus norvegicus)
# Construct: the anterior lobe of the pituitary gland was isolated and washed with ice-cooled homogenate buffer; from tissue; host or cells: anterior lobe of the pituitary gland, male Wistar rats (8 weeks old), membrane fraction
# Sequence (P30969 whole entry): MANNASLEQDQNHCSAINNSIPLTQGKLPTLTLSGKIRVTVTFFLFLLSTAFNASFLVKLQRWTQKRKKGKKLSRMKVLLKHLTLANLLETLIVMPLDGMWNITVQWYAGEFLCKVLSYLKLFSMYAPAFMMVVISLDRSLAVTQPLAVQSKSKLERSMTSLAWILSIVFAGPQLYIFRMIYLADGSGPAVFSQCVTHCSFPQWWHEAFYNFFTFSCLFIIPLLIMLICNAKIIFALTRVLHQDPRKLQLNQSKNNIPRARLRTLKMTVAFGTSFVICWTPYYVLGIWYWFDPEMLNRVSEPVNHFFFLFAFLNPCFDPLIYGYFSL
# experiment_description: 125I-leuprolerin GnRH receptor binding inhibition test, rat pituitary anterior lobe membrane fraction
# run_conditions: 4° C., 90 minutes, read-out: Binding inhibitory activity (IC50 μM) Rat
Where a name gives a salt, the structure may show the parent alone.
State just the number; it will be interpreted in µM.

molecule: c1ccc(C2(CCCN3CCCCC34CCc3ccccc3C4)COCc3ccccc32)cc1 (centres unmarked) [Example I-35, hydrochloride]
endpoint_unit: µM
quantitative_result: 0.7

molecule: COc1ccc2c(c1)CCC1(CCCCN1CCCC1(c3ccccc3)COCc3ccccc31)C2=O (centres unmarked) [Example I-48, hydrochloride]
endpoint_unit: µM
quantitative_result: 0.4

molecule: COc1cc2c(cc1OC)CC1(CCCCN1CCCC1(c3ccc(F)cc3)COCc3ccccc31)CC2 (centres unmarked) [Example I-50, hydrochloride]
endpoint_unit: µM
quantitative_result: 0.08

molecule: O=C1c2ccsc2CCC12CCCCN2CCCC1(c2ccccc2)COCc2ccccc21 (centres unmarked) [Example I-47, hydrochloride]
endpoint_unit: µM
quantitative_result: 0.3

molecule: COC(=O)c1cccc(CNCCCC2(c3ccccc3)COCc3ccccc32)c1 (centres unmarked) [Example I-45, hydrochloride]
endpoint_unit: µM
quantitative_result: 0.5

molecule: COc1cc2c(cc1OC)CC1(CCCCN1CCCC1(c3ccccc3)COCc3ccccc31)CC2 (centres unmarked) [Example I-37, hydrochloride]
endpoint_unit: µM
quantitative_result: 0.03

Exercise: Indicate the recorded IC50 value for this molecule: c1ccc(CCNCCCC2(c3ccccc3)COCc3ccccc32)cc1 (centres unmarked) [Example I-24, hydrochloride]
Solution: 0.9

Exercise: Note IC50 for the molecule shown: Cc1cccc(CNCCCC2(c3ccccc3)COCc3ccccc32)c1 (centres unmarked) [Example I-46, hydrochloride]
Solution: 0.5

---

# tested_on: GnRH receptors (bovine pituitary anterior lobe membrane fraction) (Bos taurus, UniProt P32236)
# Construct: A bovine pituitary anterior lobe membrane fraction containing GnRH receptors was prepared; from tissue; host or cells: bovine pituitary anterior lobe, membrane fraction
# Sequence (P32236 whole entry): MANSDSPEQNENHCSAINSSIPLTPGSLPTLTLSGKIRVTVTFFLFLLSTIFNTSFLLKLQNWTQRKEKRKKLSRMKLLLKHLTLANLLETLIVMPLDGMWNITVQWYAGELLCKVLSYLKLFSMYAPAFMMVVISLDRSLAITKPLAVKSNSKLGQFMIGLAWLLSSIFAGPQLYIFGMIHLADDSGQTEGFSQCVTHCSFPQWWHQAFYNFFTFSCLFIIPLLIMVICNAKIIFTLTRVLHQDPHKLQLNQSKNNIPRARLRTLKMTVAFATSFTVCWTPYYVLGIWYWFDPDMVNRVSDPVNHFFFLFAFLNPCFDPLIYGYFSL
# experiment_description: 125I-leuprolerin GnRH receptor binding inhibition test, bovine pituitary anterior lobe membrane fraction
# run_conditions: 4° C., 90 minutes, read-out: Binding inhibitory activity (IC50 μM) Bovine
Structures can show the parent of a compound that is named as a salt.
reported_property: IC50 (µM)
Numbers only here, please. The scale is µM.

Known IC50 results, listed for orientation:
molecule: COc1cc2c(cc1OC)CC1(CCCCN1CCCCC1(c3ccccc3)COCc3ccccc31)CC2 (stereo not shown) [Example I-52, hydrochloride]
reported_property: IC50
quantitative_result: 5
//
molecule: COc1ccc2c(c1)CCC1(CCCCN1CCCC1(c3ccccc3)COCc3ccccc31)C2=O (stereo not shown) [Example I-48, hydrochloride]
reported_property: IC50
quantitative_result: 10

Exercise: Output measured IC50 for this item: c1ccc(C2(CCCN3CCCCC34CCc3ccccc3C4)COCc3ccccc32)cc1 (stereo not shown) [Example I-35, hydrochloride]
Solution: 6

Exercise: Complete the entry with IC50 for Cc1cccc(CNCCCC2(c3ccccc3)COCc3ccccc32)c1 (stereo not shown) [Example I-46, hydrochloride]
Solution: 14
